B1: E3 ubiquitin-protein ligase CCNB1IP1 (Homo sapiens), Q9NPC3 (parent)
chain: MSLCEDMLLCNYRKCRIKLSGYAWVTACSHIFCDQHGSGEFSRSPAICPACNSTLSGKLDIVRTELSPSEEYKAMVLAGLRPEIVLDISSRALAFWTYQVHQERLYQEYNFSKAEGHLKQMEKIYTQQIQSKDVELTSMKGEVTSMKKVLEEYKKKFSDISEKLMERNRQYQKLQGLYDSLRLRNITIANHEGTLEPSMIAQSGVLGFPLGNNSKFPLDNTPVRNRGDGDGDFQFRPFFAGSPTAPEPSNSFFSFVSPSRELEQQQVSSRAFKVKRI

variants of: B1; conditions: with aapk2_human PRKAA2, P54646
Sequence (P54646 whole entry, looked up): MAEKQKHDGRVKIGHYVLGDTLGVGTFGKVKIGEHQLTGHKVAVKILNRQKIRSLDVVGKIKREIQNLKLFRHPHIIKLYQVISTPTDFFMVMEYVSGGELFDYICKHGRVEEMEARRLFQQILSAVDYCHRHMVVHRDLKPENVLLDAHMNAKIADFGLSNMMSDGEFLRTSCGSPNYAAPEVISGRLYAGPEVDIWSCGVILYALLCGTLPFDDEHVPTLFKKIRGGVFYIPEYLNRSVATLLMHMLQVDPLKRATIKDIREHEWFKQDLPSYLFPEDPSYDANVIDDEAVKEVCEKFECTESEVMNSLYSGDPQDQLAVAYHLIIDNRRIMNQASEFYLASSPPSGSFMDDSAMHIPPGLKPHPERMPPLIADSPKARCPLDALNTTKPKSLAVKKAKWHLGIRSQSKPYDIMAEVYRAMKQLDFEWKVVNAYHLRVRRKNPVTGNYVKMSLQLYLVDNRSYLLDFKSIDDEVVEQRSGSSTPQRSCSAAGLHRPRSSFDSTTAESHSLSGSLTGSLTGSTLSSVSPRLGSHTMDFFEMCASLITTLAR

{"Variant Label": "Y106H", "effect of a mutation on the interaction": "with no effect"}
{"Variant Label": "T187A", "effect of a mutation on the interaction": "with no effect"}
{"Variant Label": "F41L", "effect of a mutation on the interaction": "with no effect"}
{"Variant Label": "N212D", "effect of a mutation on the interaction": "with no effect"}

// provenance: IntAct's records for PubMed 31515488
